Target chain: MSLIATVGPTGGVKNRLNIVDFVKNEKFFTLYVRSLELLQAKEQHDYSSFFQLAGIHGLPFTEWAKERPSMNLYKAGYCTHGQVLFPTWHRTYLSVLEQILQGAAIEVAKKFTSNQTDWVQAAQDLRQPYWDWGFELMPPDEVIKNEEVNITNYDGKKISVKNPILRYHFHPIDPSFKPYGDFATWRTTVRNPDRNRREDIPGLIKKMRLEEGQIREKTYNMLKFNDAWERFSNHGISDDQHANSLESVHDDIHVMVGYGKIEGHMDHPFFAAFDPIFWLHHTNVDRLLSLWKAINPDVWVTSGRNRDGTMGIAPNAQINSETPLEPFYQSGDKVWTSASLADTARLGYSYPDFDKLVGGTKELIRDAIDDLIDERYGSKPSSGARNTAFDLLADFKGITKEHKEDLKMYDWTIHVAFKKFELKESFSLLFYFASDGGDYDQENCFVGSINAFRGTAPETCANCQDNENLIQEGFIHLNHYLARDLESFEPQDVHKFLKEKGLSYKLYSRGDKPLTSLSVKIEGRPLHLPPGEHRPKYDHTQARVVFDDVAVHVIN
MEASUREMENT KIND: IC50

Below, 6 molecules whose answers are already recorded.
{"MOLECULE": "O=C1CC(c2ccc(O)cc2O)Oc2cccc(O)c21 (configuration not stated)", "IC50": "1.96 µM"}
{"MOLECULE": "O=Cc1ccc(O)cc1O", "IC50": "> 200 µM"}
{"MOLECULE": "O=C(CC(CC(=O)c1ccccc1O)c1ccc(O)cc1O)c1ccccc1O", "IC50": "1.67 µM"}
{"MOLECULE": "O=C(/C=C/c1ccc(O)cc1O)c1ccccc1O", "IC50": "0.029 µM"}
{"MOLECULE": "O=c1cc(-c2ccc(O)cc2O)oc2cccc(O)c12", "IC50": "2.72 µM"}
{"MOLECULE": "CC(=O)c1c(O)cccc1O", "IC50": "> 300 µM"}

Turning to the following molecule.
Input "CC(=O)c1ccccc1O" . Output IC50: > 300 µM
